Recorded measurements of melting point, one per entry

1) CC1CCc2c(C#N)ccc3c(=O)c(C(=O)O)cn1c23 (configuration not stated)
300 °C

// lookup melting point for COc1cc2c(cc1O)CCN(C(=O)c1ccccc1OC)C2=O
199 to 200 °C

Request: NC(=O)c1ccc(OCc2ccccc2)cc1CCN1CCNCC1
116 to 118 °C

Request: CCOC(=O)c1cc2c(C)c(F)ccc2[nH]1
148 to 149 °C

Request: O=C(NN1CCCCC1)c1nn(-c2ccccc2-c2ccccc2Cl)c2c1C1CC3CC(C1)CC2C3
206 °C

Request: CCOC(=O)C1Cc2ccc(NC)cc2NC1=O (configuration not stated)
171 to 172 °C

Request: CCOC(=O)C(O)c1cc(F)cc2cccnc12 (configuration not stated)
84 to 87 °C

Request: CC(NC(=O)OCc1ccccc1)C(=O)N1CC(=O)N(CC(N)=O)C1(C)C (configuration not stated)
206 to 210 °C

Request: CN(C)C(=O)c1ccc(NC(=O)C(C)(C)C)cc1C(F)(F)F
199 to 200 °C

Request: O=C(O)CC1c2cc(C(F)(F)F)ccc2C(=O)N1CC(F)(F)F (racemic)
202 to 204 °C

Request: Cc1ccc([N+](=O)[O-])c(C)c1CO
94.5 to 96.1 °C

Request: CCSc1cc(C)nc(SCC)c1NC(=O)CCCCCCCCSc1nc2c(C)c(Cl)cc(C(C)C)c2o1
93 to 94 °C
